Target: EGFR del19/T790M/C797S (Homo sapiens, UniProt P00533, C797S/DEL746-750/T790M)
Sequence (P00533 with tags, fused parts or gaps DEL746-750/T790M/C797S): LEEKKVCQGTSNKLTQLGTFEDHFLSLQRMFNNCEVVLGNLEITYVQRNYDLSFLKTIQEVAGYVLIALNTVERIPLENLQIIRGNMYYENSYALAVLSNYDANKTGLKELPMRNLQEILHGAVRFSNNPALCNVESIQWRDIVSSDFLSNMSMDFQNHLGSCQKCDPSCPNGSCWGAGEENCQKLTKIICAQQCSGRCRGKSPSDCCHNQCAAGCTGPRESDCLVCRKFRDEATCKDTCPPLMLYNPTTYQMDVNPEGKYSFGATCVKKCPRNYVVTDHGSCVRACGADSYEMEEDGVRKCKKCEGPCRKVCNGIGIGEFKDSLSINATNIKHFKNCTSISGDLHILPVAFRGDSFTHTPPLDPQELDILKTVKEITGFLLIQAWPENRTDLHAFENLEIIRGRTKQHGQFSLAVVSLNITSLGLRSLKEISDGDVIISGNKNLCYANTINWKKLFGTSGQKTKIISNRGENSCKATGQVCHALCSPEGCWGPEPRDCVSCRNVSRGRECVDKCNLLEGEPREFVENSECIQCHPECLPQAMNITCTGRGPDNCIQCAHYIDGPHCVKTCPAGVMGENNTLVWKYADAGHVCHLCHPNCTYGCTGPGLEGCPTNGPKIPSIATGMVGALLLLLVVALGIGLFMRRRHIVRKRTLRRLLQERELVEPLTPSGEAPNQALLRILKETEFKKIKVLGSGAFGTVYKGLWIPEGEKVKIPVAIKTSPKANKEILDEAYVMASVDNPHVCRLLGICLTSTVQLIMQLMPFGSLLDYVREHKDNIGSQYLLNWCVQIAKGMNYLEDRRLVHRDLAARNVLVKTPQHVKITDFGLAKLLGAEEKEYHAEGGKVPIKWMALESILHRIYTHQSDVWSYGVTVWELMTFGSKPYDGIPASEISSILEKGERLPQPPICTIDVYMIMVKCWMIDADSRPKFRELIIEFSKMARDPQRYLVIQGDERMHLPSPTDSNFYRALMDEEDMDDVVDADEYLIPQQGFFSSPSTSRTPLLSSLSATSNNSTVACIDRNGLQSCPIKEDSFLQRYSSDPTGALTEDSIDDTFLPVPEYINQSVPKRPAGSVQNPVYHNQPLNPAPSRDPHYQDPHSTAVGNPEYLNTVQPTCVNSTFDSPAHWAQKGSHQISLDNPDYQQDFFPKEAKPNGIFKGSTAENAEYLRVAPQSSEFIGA
Assay: Biochemical EGFR kinase assay (Lance Ultra TR-FRET), triple mutant del19/T790M/C797S
Conditions: IC50 del19/T790M/C797S (nM) 100 μM ATP, 100 μM ATP
Procedure: Biochemical EGFR kinase assays were conducted using Lance Ultra time-resolved fluorescence resonance energy transfer (TR-FRET) technology from Perkin-Elmer. […] Each kinase reactions were incubated at room temperature for 1 hour and then stopped by the addition of 4 μL of stop solution (10 mM EDTA). […] After 60 minutes incubation at room temperature the LANCE signal was measured on an EnVision Multilabel Reader (Perkin-Elmer). […]
readout.type: IC50

Cn1ccc(-c2cnc(Nc3ccnc(-c4cnn(S(=O)(=O)C5CC5)c4)n3)cc2N[C@H]2CC[C@](O)(C(F)F)CC2)n1 = 0.5 nM
CN(C)C[C@H]1C[C@@H](CNc2cc(Nc3ccnc(-c4cnn(S(=O)(=O)C5CC5)c4)n3)ncc2-c2ccn(C(F)F)n2)C1 = 0.1 nM
Cn1nc(-c2cnc(Nc3ccnc(-c4cnn(S(=O)(=O)C5CC5)c4)n3)cc2NC[C@H]2CC[C@@H](O)C2)cc1C(F)(F)F = 1.2 nM
Cn1nc(-c2cnc(Nc3nc(-c4cnn(S(=O)(=O)C5CC5)c4)ncc3F)cc2N[C@H]2CC[C@@](C)(O)CC2)cc1C(F)(F)F = 8 nM
CN(C)CCNC1CCC(Nc2cc(Nc3ccnc(-c4cnn(S(=O)(=O)C5CC5)c4)n3)ncc2-c2ccn(C(F)F)n2)CC1 (centres unmarked) = 0.5 nM

IC50 for C[C@]1(O)CC[C@@H](Nc2cc(Nc3ccnc(-c4ccc(F)nc4)n3)ncc2-c2ccn(C(F)F)n2)CC1 ?
17.5 nM

Consider next the compound O=S(=O)(C1CC1)n1cc(-c2nccc(Nc3cc(N[C@H]4CC[C@@H](NCC(F)F)CC4)c(-c4ccn(C(F)F)n4)cn3)n2)cn1 in the same way.
1.3 nM

---

Measured IC50, listed per entry for reference.
Target: EGFR wildtype (WT) (Homo sapiens)
Sequence (P00533 25-1210): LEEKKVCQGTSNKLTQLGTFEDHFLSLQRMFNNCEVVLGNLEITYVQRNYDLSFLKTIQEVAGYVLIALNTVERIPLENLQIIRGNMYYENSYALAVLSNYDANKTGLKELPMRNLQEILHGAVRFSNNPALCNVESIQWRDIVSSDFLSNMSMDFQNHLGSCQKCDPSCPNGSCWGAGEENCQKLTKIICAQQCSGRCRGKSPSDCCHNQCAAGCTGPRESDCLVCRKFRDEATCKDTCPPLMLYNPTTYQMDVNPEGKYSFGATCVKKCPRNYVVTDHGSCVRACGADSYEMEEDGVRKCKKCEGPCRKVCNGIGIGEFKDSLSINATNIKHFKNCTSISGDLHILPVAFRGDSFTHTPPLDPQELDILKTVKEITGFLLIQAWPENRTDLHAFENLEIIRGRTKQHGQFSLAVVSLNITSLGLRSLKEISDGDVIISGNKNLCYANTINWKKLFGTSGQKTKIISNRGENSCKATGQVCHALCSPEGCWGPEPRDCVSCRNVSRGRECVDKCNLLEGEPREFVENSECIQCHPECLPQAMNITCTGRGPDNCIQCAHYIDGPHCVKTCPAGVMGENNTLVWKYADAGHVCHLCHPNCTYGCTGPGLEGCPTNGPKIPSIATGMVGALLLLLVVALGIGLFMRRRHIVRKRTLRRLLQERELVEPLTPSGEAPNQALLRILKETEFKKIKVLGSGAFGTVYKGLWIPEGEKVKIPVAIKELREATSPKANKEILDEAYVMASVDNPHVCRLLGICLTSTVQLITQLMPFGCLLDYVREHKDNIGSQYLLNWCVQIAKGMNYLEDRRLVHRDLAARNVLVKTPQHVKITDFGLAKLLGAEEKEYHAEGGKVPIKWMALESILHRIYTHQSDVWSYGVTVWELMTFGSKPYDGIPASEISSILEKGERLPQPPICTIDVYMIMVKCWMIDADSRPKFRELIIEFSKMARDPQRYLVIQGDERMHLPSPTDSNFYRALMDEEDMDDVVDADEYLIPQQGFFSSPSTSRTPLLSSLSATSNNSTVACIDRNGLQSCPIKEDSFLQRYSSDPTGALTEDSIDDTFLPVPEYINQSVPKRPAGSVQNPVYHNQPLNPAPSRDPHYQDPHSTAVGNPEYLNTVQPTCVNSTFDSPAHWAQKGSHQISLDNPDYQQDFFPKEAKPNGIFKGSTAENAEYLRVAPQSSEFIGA
Test: Biochemical EGFR kinase assay (Lance Ultra TR-FRET), wildtype
Conditions: Km ATP; read-out: IC50 WT (nM) Km ATP
// note: answer is a bare numeric in nM

Param readout= IC50; system= EGFR wildtype (WT) (Homo sapiens); entry= O=S(=O)(C1CC1)n1cc(-c2nccc(Nc3cc(OC4CCC(O)CC4)c(-c4cnn(C(F)F)c4)cn3)n2)cn1 (stereo not shown) ; returns value.
26

Consider next the molecule CN(C)C(=O)C[C@H]1CC[C@@H](Nc2cc(Nc3ccnc(-c4cnn(S(=O)(=O)C5CC5)c4)n3)ncc2-c2cc(C(F)(F)F)n(C)n2)CC1 in the same way.
9

Consider next the molecule O=S(=O)(C1CC1)n1cc(-c2nccc(Nc3cc(N[C@H]4CC[C@@H](CO)CC4)c(-c4ccn(C5CC5)n4)cn3)n2)cn1 in the same way.
1.6

Consider next the molecule O=S(=O)(C1CC1)n1cc(-c2nccc(Nc3cc(NC[C@H]4CC[C@@H](O)C4)c(-c4ccn(CC(F)(F)F)n4)cn3)n2)cn1 in the same way.
74.4

Consider next the molecule CS(=O)(=O)c1ccn(-c2cnc(Nc3ccnc(-c4cnn(S(=O)(=O)C5CC5)c4)n3)cc2N[C@H]2CC[C@@](C)(O)CC2)n1 in the same way.
624

Consider next the molecule FC(F)Cn1cc(-c2nccc(Nc3cc(N[C@H]4CC[C@@H](F)CC4)c(-c4ccn(C(F)F)n4)cn3)n2)cn1 in the same way.
640

Consider next the molecule Cn1ccc(-c2cnc(Nc3ccnc(-c4cnn(S(=O)(=O)C5CC5)c4)n3)cc2NC2CCC(F)(CO)CC2)n1 (stereo not shown) in the same way.
14.9

Consider next the molecule CS(=O)(=O)N1CCC(c2nccc(Nc3cc(N[C@H]4CC[C@@](C)(O)CC4)c(-c4ccn(C(F)F)n4)cn3)n2)CC1 in the same way.
635

Consider next the molecule CC(C)(O)[C@H]1CC[C@@H](Nc2cc(Nc3ccnc(-c4cnn(S(=O)(=O)C5CC5)c4)n3)ncc2-c2ccn(CC(F)F)n2)CC1 in the same way.
8.4

Consider next the molecule CN(C)CC[C@H]1CC[C@@H](Nc2cc(Nc3ccnc(-c4cnn(S(=O)(=O)C5CC5)c4)n3)ncc2-c2ccn(C)n2)CC1 in the same way.
0.2

Consider next the molecule O=C1CC[C@]2(CC[C@H](Nc3cc(Nc4ccnc(-c5cnn(S(=O)(=O)C6CC6)c5)n4)ncc3-c3csc(C(F)(F)F)n3)CC2)N1 in the same way.
18

Consider next the molecule CN[C@H]1CC[C@@H](Nc2cc(Nc3ccnc(-c4cnn(S(=O)(=O)C5CC5)c4)n3)ncc2-c2ccn(C)n2)CC1 in the same way.
3.2

Consider next the molecule CS(=O)(=O)Cn1cc(-c2nccc(Nc3cc(N[C@H]4CC[C@@](C)(O)CC4)c(-c4ccn(C(F)F)n4)cn3)n2)cn1 in the same way.
104

---

Target: EGFR L858R/C797S (Homo sapiens, UniProt P00533, C797S/L858R)
Sequence (P00533 25-1210 C797S/L858R): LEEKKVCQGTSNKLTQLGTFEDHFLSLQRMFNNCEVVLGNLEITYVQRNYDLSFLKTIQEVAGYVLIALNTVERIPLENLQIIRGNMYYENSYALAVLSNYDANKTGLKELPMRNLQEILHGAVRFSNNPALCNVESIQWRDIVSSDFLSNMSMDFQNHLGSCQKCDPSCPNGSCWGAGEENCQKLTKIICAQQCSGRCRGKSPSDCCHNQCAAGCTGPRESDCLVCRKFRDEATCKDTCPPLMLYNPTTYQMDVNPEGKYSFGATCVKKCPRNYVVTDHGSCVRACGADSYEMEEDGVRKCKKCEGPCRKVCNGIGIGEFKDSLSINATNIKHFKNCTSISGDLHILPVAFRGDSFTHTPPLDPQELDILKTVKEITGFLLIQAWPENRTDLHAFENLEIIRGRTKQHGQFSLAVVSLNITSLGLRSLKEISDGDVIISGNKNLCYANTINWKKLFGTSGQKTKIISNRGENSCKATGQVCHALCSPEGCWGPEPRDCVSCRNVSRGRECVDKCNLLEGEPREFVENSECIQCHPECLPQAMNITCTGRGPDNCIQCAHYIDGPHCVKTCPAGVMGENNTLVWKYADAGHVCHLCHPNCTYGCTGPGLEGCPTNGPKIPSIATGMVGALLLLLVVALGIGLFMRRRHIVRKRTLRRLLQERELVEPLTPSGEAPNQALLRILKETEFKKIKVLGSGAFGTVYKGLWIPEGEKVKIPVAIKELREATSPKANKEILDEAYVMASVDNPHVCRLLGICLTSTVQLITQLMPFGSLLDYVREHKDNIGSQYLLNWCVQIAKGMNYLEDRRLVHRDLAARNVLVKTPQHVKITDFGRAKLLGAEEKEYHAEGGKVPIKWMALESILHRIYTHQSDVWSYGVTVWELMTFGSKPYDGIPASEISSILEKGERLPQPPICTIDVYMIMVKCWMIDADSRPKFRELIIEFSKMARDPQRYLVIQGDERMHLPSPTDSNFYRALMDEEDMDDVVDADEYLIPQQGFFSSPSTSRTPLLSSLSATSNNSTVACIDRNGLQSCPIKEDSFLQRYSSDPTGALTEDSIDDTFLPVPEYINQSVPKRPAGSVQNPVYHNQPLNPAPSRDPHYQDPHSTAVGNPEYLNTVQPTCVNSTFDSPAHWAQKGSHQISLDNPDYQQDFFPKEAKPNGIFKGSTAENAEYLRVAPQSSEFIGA
Experiment: Biochemical EGFR kinase assay (Lance Ultra TR-FRET), double mutant L858R/C797S
Conditions: Km ATP; read-out: IC50 L858R/C797S (nM) Km ATP
Measured log10 of IC50, listed per entry for reference.
Recorded IC50 (log10, nM)

Cn1ccc(-c2cnc(Nc3ccnc(-c4cnn(S(=O)(=O)C5CC5)c4)n3)cc2N[C@H]2CC[C@@H](F)CC2)n1 = -0.30
CN(C)C[C@H]1CC[C@H](CNc2cc(Nc3ccnc(-c4cnn(S(=O)(=O)C5CC5)c4)n3)ncc2-c2ccn(C(F)F)n2)CC1 = -0.52
CC(C)(O)[C@H]1CC[C@@H](Nc2cc(Nc3ccnc(-c4cnn(CC(F)F)c4)n3)ncc2-c2ccn(C(F)F)n2)CC1 = 1.43

Param readout= log10 of IC50; system= EGFR L858R/C797S (Homo sapiens, UniProt P00533, C797S/L858R); entry= O=S(=O)(C1CC1)n1cc(-c2nccc(Nc3cc(NCC4(CO)COC4)c(-c4ccn(C(F)F)n4)cn3)n2)cn1 ; returns value.
0.32

Consider next the compound Cn1ccc(-c2cnc(Nc3ccnc(-c4cnn(S(=O)(=O)C5CC5)c4)n3)cc2N[C@H]2CC[C@@H](NCCF)CC2)n1 in the same way.
-0.40

Consider next the compound O=S(=O)(C1CC1)n1cc(-c2nccc(Nc3cc(NC4CCC(CCF)CC4)c(-c4ccn(C(F)F)n4)cn3)n2)cn1 (stereo not shown) in the same way.
1.42

Consider next the compound C[C@]1(O)CC[C@@H](Nc2cc(Nc3ccnc(-c4cnc5c(c4)CCCO5)n3)ncc2-c2ccn(C(F)F)n2)CC1 in the same way.
1.02

Consider next the compound Cn1nc(-c2cnc(Nc3ccnc(-c4cnn(S(=O)(=O)C5CC5)c4)n3)cc2N[C@H]2CC[C@@H](CCO)CC2)cc1C(F)(F)F in the same way.
0.76

---

Biological target: EGFR del19/T790M/C797S (Homo sapiens, UniProt P00533, C797S/DEL746-750/T790M)
Assay: Biochemical EGFR kinase assay (Lance Ultra TR-FRET), triple mutant del19/T790M/C797S
Conditions: Km ATP; read-out: IC50 del19/T790M/C797S (nM) Km ATP
Measured IC50, listed per entry for reference.
# number then unit; no other words

Answered cases to consult:
CS(=O)(=O)c1ccn(-c2cnc(Nc3ccnc(-c4cnn(S(=O)(=O)C5CC5)c4)n3)cc2N[C@H]2CC[C@@](C)(O)CC2)n1 [Example 183] = 0.8 nM
CN(C)C[C@H]1CC[C@@H](Nc2cc(Nc3ccnc(-c4cnn(S(=O)(=O)C5CC5)c4)n3)ncc2-c2cc3n(n2)CCCC3)CC1 [Example 277] = 0.2 nM

IC50 for Cn1ccc(-c2cnc(Nc3ccnc(-c4cnn(S(=O)(=O)C5CC5)c4)n3)cc2NC2CCCC(NCC(F)F)C2)n1 (stereo not shown) [Example 224] ?
0.5 nM

Consider next the compound CS(=O)(=O)Cn1cc(-c2nccc(Nc3cc(N[C@H]4CC[C@@](C)(O)CC4)c(-c4ccn(C(F)F)n4)cn3)n2)cn1 [Example 150] in the same way.
1.6 nM

Consider next the compound O=S(=O)(C1CC1)n1cc(-c2nccc(Nc3cc(N[C@H]4CC[C@@H](NCC(F)F)CC4)c(-c4ccn(C(F)F)n4)cn3)n2)cn1 [Example 23] in the same way.
0.7 nM

Consider next the compound Cn1cc(-c2nccc(Nc3cc(N[C@H]4CC[C@@](C)(O)CC4)c(-c4ccn(C(F)F)n4)cn3)n2)cn1 [Example 139] in the same way.
1.7 nM

Consider next the compound O=S(=O)(C1CC1)n1cc(-c2nccc(Nc3cc(NC[C@H]4CC[C@@H](O)CC4)c(-c4ccn(C(F)F)n4)cn3)n2)cn1 [Example 30] in the same way.
0.6 nM

Consider next the compound C[C@]1(O)CC[C@@H](Nc2cc(Nc3ccnc(-c4cnn(S(=O)(=O)C5CC5)c4)n3)ncc2-c2ccn(CCC(F)(F)F)n2)CC1 [Example 295] in the same way.
0.7 nM

Consider next the compound C[C@]1(O)CC[C@@H](Nc2cc(Nc3ccnc(-c4cnn(CC(F)F)c4)n3)ncc2-c2ccn(C(F)F)n2)CC1 [Example 143] in the same way.
0.1 nM

Consider next the compound O=S(=O)(C1CC1)n1cc(-c2nccc(Nc3cc(N[C@H]4CC[C@@H](F)CC4)c(-c4nc(C(F)F)cs4)cn3)n2)cn1 [Example 164] in the same way.
8.8 nM

Consider next the compound CC1(O)CCC(Oc2cc(Nc3ccnc(-c4cnn(S(=O)(=O)C5CC5)c4)n3)ncc2-c2cnn(C(F)F)c2)CC1 (stereo not shown) [Example 73] in the same way.
0.5 nM

Consider next the compound O=S(=O)(C1CC1)n1cc(-c2nccc(Nc3cc(NC4CCC(CCO)CC4)c(-c4ccn(C(F)F)n4)cn3)n2)cn1 (stereo not shown) [Example 133] in the same way.
0.3 nM

Consider next the compound O=S(=O)(C1CC1)n1cc(-c2nccc(Nc3cc(OC4CCC(O)CC4)c(-c4cnn(C(F)F)c4)cn3)n2)cn1 (stereo not shown) [Example 71] in the same way.
0.2 nM
